Molecular target: UniProt P06401
Sequence (P06401 whole entry): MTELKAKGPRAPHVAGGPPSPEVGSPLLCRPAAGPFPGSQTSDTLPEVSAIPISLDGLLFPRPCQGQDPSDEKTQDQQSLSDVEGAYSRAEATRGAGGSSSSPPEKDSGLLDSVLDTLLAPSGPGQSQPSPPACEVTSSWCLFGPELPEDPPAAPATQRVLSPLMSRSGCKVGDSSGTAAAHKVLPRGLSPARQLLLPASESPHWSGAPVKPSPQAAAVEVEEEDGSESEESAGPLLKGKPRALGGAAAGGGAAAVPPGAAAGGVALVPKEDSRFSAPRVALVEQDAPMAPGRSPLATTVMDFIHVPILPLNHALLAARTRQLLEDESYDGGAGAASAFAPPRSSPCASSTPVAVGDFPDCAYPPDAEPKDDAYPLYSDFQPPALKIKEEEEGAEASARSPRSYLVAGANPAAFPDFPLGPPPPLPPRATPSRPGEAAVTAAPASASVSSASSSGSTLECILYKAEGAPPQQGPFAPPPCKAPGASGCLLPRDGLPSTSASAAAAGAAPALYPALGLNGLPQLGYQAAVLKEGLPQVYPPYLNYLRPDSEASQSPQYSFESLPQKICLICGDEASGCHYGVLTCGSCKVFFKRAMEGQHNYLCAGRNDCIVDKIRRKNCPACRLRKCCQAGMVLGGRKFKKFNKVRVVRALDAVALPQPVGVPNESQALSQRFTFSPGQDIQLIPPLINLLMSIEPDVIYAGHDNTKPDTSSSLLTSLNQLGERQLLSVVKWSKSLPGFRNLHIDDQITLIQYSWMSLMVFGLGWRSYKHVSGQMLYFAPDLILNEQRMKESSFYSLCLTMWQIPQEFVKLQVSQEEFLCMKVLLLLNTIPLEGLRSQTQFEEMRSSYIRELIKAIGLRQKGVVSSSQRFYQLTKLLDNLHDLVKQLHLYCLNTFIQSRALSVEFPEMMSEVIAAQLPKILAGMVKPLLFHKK
Assay: Progesterone receptor-B transactivation, agonistic mode (CHO cells, luciferase)
Assay type: cell-based
Details: CHO, intrinsic agonistic activity, relative to reference (16α)-16-ethyl-21-hydroxy-19-norpregn-4-ene-3,20-dione; read-out: PRBago Eff (%)
Quick rule: Emax of at least 40% means 1, below that means -1.

Worked set:
Q: Could you please find out whether CC12CC(c3ccc(-c4cccnc4)cc3)C3=C4CCC(=O)C=C4CCC3C1CCC21CCCC1=O (stereo not drawn) has Emax that meets 40% or exceeds it?
A: -1

Q: Kindly determine if Emax recorded for `COc1cncc(-c2ccc([C@H]3C[C@@]4(C)[C@@H](C[C@@H](C)[C@@H]4C(=O)C4CC4)[C@@H]4CCC5=CC(=O)CCC5=C43)cc2)c1` is above or exactly 40%.
A: 1

Q: Reported Emax reaches at least 40% for `C[C@@H]1C[C@@H]2C(=C3CCC(=O)C=C31)[C@@H](c1ccc(-c3cccnc3)cc1)C[C@@]1(C)[C@H]2C[C@@H](C)[C@@H]1C(=O)C1CC1` ?
A: 1

Q: Dear colleague, could you confirm whether `C[C@@H]1C[C@H]2[C@@H]3CCC4=CC(=O)CCC4=C3[C@@H](c3ccc(-c4ccccn4)cc3)C[C@]2(C)[C@H]1C(=O)C1CC1` has Emax at or above 40%?
A: 1

Q: Determine whether measured Emax meets or exceeds 40% for `C[C@]12C[C@H](c3ccc(-c4cccnc4)cc3)C3=C4CCC(=O)C=C4CC[C@H]3[C@@H]1CC[C@@H]2C(=O)C1CC1`
A: -1

Q: Determine whether measured Emax meets or exceeds 40% for `C[C@]12C[C@H](c3ccc(-c4cccnc4)cc3)C3=C4CCC(=O)C=C4CC[C@H]3[C@@H]1C[C@@H](/C=C/c1ccccc1)[C@@H]2C(=O)C1CC1`
A: 1

Q: Kindly determine if Emax recorded for `C[C@]12C[C@H](c3ccc(-c4cccnc4)cc3)C3=C4CCC(=O)C=C4CC[C@H]3[C@@H]1C[C@H]1C[C@]12C(=O)C1CC1` is above or exactly 40%.
A: -1

Q: Exam item: decide whether the reported Emax for `C[C@@H]1C[C@H]2[C@@H]3CCC4=CC(=O)CCC4=C3[C@@H](c3ccc(-c4ncccn4)cc3)C[C@]2(C)[C@H]1C(=O)C1CC1` is at least 40%.
A: 1

Consider the record given below.
Q: hey, is Emax for this one >= 40%? `COc1ccc(-c2ccc([C@H]3C[C@@]4(C)[C@@H](C[C@@H](C)[C@@H]4C(=O)C4CC4)[C@@H]4CCC5=CC(=O)CCC5=C43)cc2)cn1`
A: 1
